Listing of entries alongside the reported solubility kinetic.
# measurement-protocol: Kinetic solubility
# run-parameters: kinetic from dmso stock

| compound | value-units | solubility kinetic |
| --- | --- | --- |
| Cl.O=C(Nc1cc(Cl)cc(Cl)c1)Nc1ccc(C(F)(F)F)c(CN2CCCC2)c1 | µM | 11.9 |
| O=C(Nc1cc(Cl)cc(Cl)c1)Nc1ccc(CN2CCOC(C(=O)[O-])C2)c(C(F)(F)F)c1.[Li+] (stereo not drawn) | µM | 71 |
| CN1CCN(Cc2ccc(NC(=O)Nc3cc(Cl)cc(Cl)c3)cc2C(F)(F)F)CC1.Cl | µM | 43.5 |

====

# measurement-protocol: Kinetic solubility
# run-parameters: kinetic from dmso stock

| molecule | solubility kinetic |
| --- | --- |
| Cl.O=C(Nc1cc(Cl)cc(Cl)c1)Nc1ccc(CN2CCCC2)c(C(F)(F)F)c1 | < 2 µM |
| COC(=O)C1CN(Cc2ccc(NC(=O)Nc3cc(Cl)cc(Cl)c3)cc2C(F)(F)F)CCO1.Cl (stereo not drawn) | < 2 µM |
| O=C(Nc1ccc(C(F)(F)F)cc1)Nc1cc(Cl)cc(Cl)c1 | < 2.1 µM |
